B1: DLC1 (parent)
chain: KRSWEEHVTHWMGQPFNSDDRNTA

# Variants of: B1
# Protocol Description: protein stability index of a GFP-peptide fusion (GPS, HEK-293T) (PSI 1-6); higher = more stable;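 also: lentivirally expressed fusions sorted by FACS into six bins by GFP to DsRed ratio, PSI derived from sequencing read proportions per bin multiplied by bin number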
# Particulars: c terminus: a fixed tail appended
Collected protein stability index values appear next to each entry.

{"Variant Annotation": "V8G", "protein stability index": 4.02}
{"Variant Annotation": "R2C", "protein stability index": 2.52}
{"Variant Annotation": "E5I", "protein stability index": 1.92}
{"Variant Annotation": "W11S", "protein stability index": 2.53}

From here, focus on the item given below.
### Prompt Can you look up the measured protein stability index of E5L for me?
### Response 2.47
